Cited source for all entries: patent US8889379B2

target_desc: cellodextrin phosphorylase from Clostridium stercorarium (CsCDP) (Thermoclostridium stercorarium)
Sequence (L7VUB7 entry or part of it): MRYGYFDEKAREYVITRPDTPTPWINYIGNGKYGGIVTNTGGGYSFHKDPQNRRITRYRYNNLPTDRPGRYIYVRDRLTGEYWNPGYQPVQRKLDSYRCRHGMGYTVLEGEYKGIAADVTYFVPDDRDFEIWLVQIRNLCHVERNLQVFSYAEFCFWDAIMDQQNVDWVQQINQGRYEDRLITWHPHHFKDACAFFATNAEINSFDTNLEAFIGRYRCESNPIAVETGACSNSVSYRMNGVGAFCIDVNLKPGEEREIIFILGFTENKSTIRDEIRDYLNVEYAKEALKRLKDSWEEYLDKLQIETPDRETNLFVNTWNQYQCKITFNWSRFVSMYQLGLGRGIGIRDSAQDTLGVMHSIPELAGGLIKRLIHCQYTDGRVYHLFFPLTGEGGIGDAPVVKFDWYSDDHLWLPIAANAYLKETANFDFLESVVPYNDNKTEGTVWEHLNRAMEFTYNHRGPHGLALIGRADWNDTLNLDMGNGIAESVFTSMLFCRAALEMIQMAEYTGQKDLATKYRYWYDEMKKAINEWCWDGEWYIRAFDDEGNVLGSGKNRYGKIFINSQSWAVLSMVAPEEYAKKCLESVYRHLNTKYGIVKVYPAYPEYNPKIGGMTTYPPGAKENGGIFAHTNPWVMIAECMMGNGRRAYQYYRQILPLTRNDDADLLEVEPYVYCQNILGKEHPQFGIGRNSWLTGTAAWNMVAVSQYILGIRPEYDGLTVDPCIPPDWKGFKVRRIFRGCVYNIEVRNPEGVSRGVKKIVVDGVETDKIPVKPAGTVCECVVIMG
protocol_notes: CsCDP activity assay (orthophosphate release, synthetic direction)
Format: biochemical
experimental_context: acceptor specificity; 45° C., 50 mM MES buffer pH 6.5, 50 mM of acceptor, 30 mM Glc1P donor
Description: Protein concentrations were measured with the BCA Protein Assay kit from Thermo Scientific. […] Samples were inactivated for 5 minutes at 95° C. before the amount of orthophosphate (Pi) was measured by the method of Gawronski and Benson, 2004. The Km and kcat values in the kinetic study were calculated from a Hanes-Woolf plot.
Assignment: determine reported Specific activity (U/mg) for the given molecules.
Give bare numbers, in U/mg.

Worked examples, 5 molecules total:
>>> val("O=[N+]([O-])c1ccc(O[C@@H]2OC[C@@H](O)[C@H](O)[C@H]2O)cc1 [PNP β-xyloside]")
7.5
>>> val("CO[C@@H]1O[C@H](CO)[C@@H](O)[C@H](O)[C@H]1O [Methyl β-glucoside]")
3.5
>>> val("CCCCCCO[C@@H]1O[C@H](CO)[C@@H](O)[C@H](O)[C@H]1O [Hexyl β-glucoside]")
19.9
>>> val("CCCCCCCCO[C@@H]1O[C@H](CO)[C@@H](O)[C@H](O)[C@H]1O [Octyl β-glucoside]")
20.4
>>> val("OC[C@H]1O[C@@](CO)(O[C@H]2O[C@H](CO)[C@@H](O)[C@H](O)[C@H]2O)[C@@H](O)[C@@H]1O")
0.7

Dear reader, for each entry below, please note its Specific activity (U/mg).
1. O=[N+]([O-])c1ccc(O[C@@H]2O[C@H](CO)[C@@H](O)[C@H](O)[C@H]2O)cc1 [PNP β-glucoside, p-nitrophenyl beta-glucoside]
2. OC[C@H]1O[C@H](O[C@H]2[C@H](O)[C@@H](O)C(O)O[C@@H]2CO)[C@H](O)[C@@H](O)[C@@H]1O (mixture of isomers)
3. O=[N+]([O-])c1ccc(O[C@@H]2O[C@H](CO)[C@@H](O[C@@H]3O[C@H](CO)[C@@H](O)[C@H](O)[C@H]3O)[C@H](O)[C@H]2O)cc1 [PNP β-cellobioside]

1. 24.7
2. 0.7
3. 29.0

---

target_desc: UniProt:L7VUB7
protocol_notes: CsCDP activity assay (orthophosphate release, synthetic direction)
Type: biochemical
experimental_context: relative to cellobiose; 45° C., 50 mM MES buffer pH 6.5, 50 mM of acceptor
metric: Relative activity (%)
Answers are plain numbers, in %.

Consider the following illustrative entries.
>>> val("CCCCCCCCO[C@@H]1O[C@H](CO)[C@@H](O)[C@H](O)[C@H]1O [Octyl β-glucoside]")
91
>>> val("CO[C@@H]1O[C@H](CO)[C@@H](O)[C@H](O)[C@H]1O [Methyl β-glucoside]")
16
>>> val("OC[C@H]1O[C@@](CO)(O[C@H]2O[C@H](CO)[C@@H](O)[C@H](O)[C@H]2O)[C@@H](O)[C@@H]1O")
3
>>> val("CCCCCCO[C@@H]1O[C@H](CO)[C@@H](O)[C@H](O)[C@H]1O [Hexyl β-glucoside]")
89
>>> val("O=[N+]([O-])c1ccc(O[C@@H]2OC[C@@H](O)[C@H](O)[C@H]2O)cc1 [PNP β-xyloside]")
33
>>> val("OC[C@H]1O[C@H](O[C@H]2[C@H](O)[C@@H](O)C(O)O[C@@H]2CO)[C@H](O)[C@@H](O)[C@@H]1O (mixture of isomers)")
3
>>> val("O=[N+]([O-])c1ccc(O[C@@H]2O[C@H](CO)[C@@H](O)[C@H](O)[C@H]2O)cc1 [PNP β-glucoside, p-nitrophenyl beta-glucoside]")
110

// moving on: another record for Relative activity (%)
get_value(item= O=[N+]([O-])c1ccc(O[C@@H]2O[C@H](CO)[C@@H](O[C@@H]3O[C@H](CO)[C@@H](O)[C@H](O)[C@H]3O)[C@H](O)[C@H]2O)cc1 [PNP β-cellobioside] , readout=Relative activity (%)) returns 129
